- Tested on: HCT116
- ASSAY_REMARKS: efficacy (fitted maximal change in viability relative to DMSO control); higher = less cytotoxic (negative = loss of viability)
- CONDITION: 48 h
VALUE_TYPE: efficacy (%)
# number only, unit % dropped from output

Example entries and their recorded answers appear below.
1. CNC[C@H](O)c1ccc(O)c(O)c1 [Epinephrine]: -17.8
2. COc1ccc(C(=O)CC2(O)C(=O)Nc3c(Cl)ccc(Cl)c32)cc1 (stereo not drawn): -57.1
3. O=NN(CCCl)C(=O)NCCCl: -15.1
4. C[C@@H]1CCN(C(=O)N2CCCC2)C[C@@H]1N(C)c1ncnc2[nH]ccc12: -8.82
5. Cc1c(Cl)cccc1[S+](=O)([O-])Nc1nc(CCN2CCOCC2=O)cs1: -14.1
6. O=C(C(c1ccccc1)c1ccccc1)N1CCN(CC(O)COc2cccc3ncccc23)CC1 (stereo not drawn): -50.3
7. CN1CCN([C@H]2CC[C@H](n3cc(-c4ccc(Oc5ccccc5)cc4)c4c(N)ncnc43)CC2)CC1: -110

Noted for COC1=C(OC)C=C2C(=CC=NC2=C1)OC3=CC=C(NC(=O)\C4=C\N(C(C)C)C(=O)N(C4=O)C5=CC=C(F)C=C5)C=C3F : its efficacy reads -13.9

---

Overview of reported AC50 cell viability across a group of compounds:
- System: HCT116
- ASSAY_REMARKS: AC50 cell viability (CellTiter-Glo); higher = less potent
- CONDITION: 48 h
# number only, unit µM dropped from output

1) COc1cccc([C@@H](C)NCCCc2ccccc2Cl)c1: 23.5
2) COC1=CC=C2/C3=N/CCN3\C(=N/C2=C1OC)NC(=O)C4=CC=CN=C4: 0.263
3) C=CCc1cccc(/C=N/NC(=O)CN2CCN(Cc3ccccc3)CC2)c1O: 7.42

Noted for CC/1=C(\O)C(=O)\C=C2/C1=C\C=C3/[C@@]2(C)CC[C@@]4(C)[C@@H]5C[C@@](C)(CC[C@]5(C)CC[C@]34C)C(O)=O : its AC50 cell viability reads 3.32

Noted for C[C@@H](Nc1ncnc2[nH]c(-c3ccc(O)cc3)cc12)c1ccccc1 : its AC50 cell viability reads 14.8

---

Overview of reported efficacy across a group of molecules:
- Test system: HCT116
- ASSAY_REMARKS: efficacy (fitted maximal change in viability relative to DMSO control); higher = less cytotoxic (negative = loss of viability)
- CONDITION: 48 h
# number only, unit % dropped from output

1. CC(C)c1ccccc1Cc1cc(C(=O)Nc2ccc([S+](=O)([O-])c3ccccc3C(C)(C)C)cc2)c(O)c(O)c1O: -90.9

The value of efficacy recorded for CCCCCCC(C)(C)C1=CC2=C([C@H]3CC(=C/CC3C(C)(C)O2)\CO)C(=C1)O (some centres not stated) when tested on HCT116 reads -93.9

The value of efficacy recorded for C[C@@H]1C[C@H]2[C@@H]3\C=C(C)/C4=C/C5=C(C[C@]4(C)[C@H]3[C@@H](O)C[C@]2(C)[C@@]1(O)C(=O)COC(C)=O)C=N[N]5C6=CC=CC=C6 when tested on HCT116 reads -25.2

The value of efficacy recorded for CC1(C)O[C@@H]2C[C@H]3[C@@H]4C[C@H](F)\C5=C\C(=O)\C=C/[C@]5(C)[C@H]4[C@@H](O)C[C@]3(C)[C@@]2(O1)C(=O)CO [FLUNISOLIDE] when tested on HCT116 reads -18.4

The value of efficacy recorded for CC[C@H]1CN2CCc3cc(OC)c(OC)cc3[C@@H]2C[C@@H]1C[C@H]1NCCc2cc(OC)c(OC)cc21 when tested on HCT116 reads -73.6

The value of efficacy recorded for OC(COC1=C2C(=O)\C=C(/OC2=CC=C1)C([O-])=O)COC3=C4C(=O)\C=C(/OC4=CC=C3)C([O-])=O [Sodium cromoglycate] when tested on HCT116 reads -6.55

The value of efficacy recorded for NC(=O)c1ccc2[nH]ccc2c1 when tested on HCT116 reads -11.3
